Origin of values: patent US8993565B2

value type: melting point (°C)

[[record]]
molecule = "CC1Cc2ccccc2N1C(=O)Cc1nc(N2CCOCC2)cc(=O)n1C (stereo not drawn)"
result_units = "°C"
qualifier_symbol = "="
endpoint_result = 148

[[record]]
molecule = "CCOc1cccc2c1CCN2C(=O)Cc1nc(N2CCOCC2)cc(=O)[nH]1"
result_units = "°C"
qualifier_symbol = "="
endpoint_result = 257

[[record]]
molecule = "O=C(Cc1nc(N2CCOCC2)cc(=O)[nH]1)Nc1ccccc1O"
result_units = "°C"
qualifier_symbol = ">"
endpoint_result = 260

[[record]]
molecule = "COc1cccc2c1CCN2C(=O)Cc1nc(N2CCOCC2)cc(=O)n1C"
result_units = "°C"
qualifier_symbol = "="
endpoint_result = 229

[[record]]
molecule = "Cn1c(CC(=O)Nc2cccc(C3CC3)c2)nc(N2CCOCC2)cc1=O"
result_units = "°C"
qualifier_symbol = "="
endpoint_result = 216

[[record]]
molecule = "Cn1c(CC(=O)N2CCc3cc(F)c(F)cc32)nc(N2CCOCC2)cc1=O"
result_units = "°C"
qualifier_symbol = "="
endpoint_result = 250

[[record]]
molecule = "Cn1c(CC(=O)Nc2cccc3sccc23)nc(N2CCOCC2)cc1=O"
result_units = "°C"
qualifier_symbol = "="
endpoint_result = 254

[[record]]
molecule = "CN(C)CC1CN(C(=O)Cc2nc(N3CCOCC3)cc(=O)[nH]2)c2ccccc21 (stereo not drawn)"
result_units = "°C"
qualifier_symbol = "="
endpoint_result = 243

[[record]]
molecule = "O=C(Cc1nc(N2CCOCC2)cc(=O)[nH]1)N1CCCc2c(Cl)cccc21"
result_units = "°C"
qualifier_symbol = "="
endpoint_result = 238

[[record]]
molecule = "Cc1cccc2c1CCN2C(=O)Cc1nc(N2CCOCC2)cc(=O)n1C"
result_units = "°C"
qualifier_symbol = "="
endpoint_result = 239

[[record]]
molecule = "Cn1c(CC(=O)Nc2cccc(Br)c2)nc(N2CCOCC2)cc1=O"
result_units = "°C"
qualifier_symbol = "="
endpoint_result = 266

[[record]]
molecule = "Cn1c(CC(=O)N2CCc3c(F)cccc32)nc(N2CCOCC2)cc1=O"
result_units = "°C"
qualifier_symbol = "="
endpoint_result = 244


* * *

Parameter melting point: see the listing below.
value type: melting point (°C)

[[record]]
compound = "O=C(Cc1nc(N2CCOCC2)cc(=O)[nH]1)Nc1cc(F)cc(F)c1"
qualifier_symbol = ">"
endpoint_result = 260

[[record]]
compound = "O=C(Cc1nc(N2CCOCC2)cc(=O)[nH]1)Nc1ccc(F)c(CO)c1"
qualifier_symbol = ">"
endpoint_result = 260

[[record]]
compound = "COCc1cc(NC(=O)Cc2nc(N3CCOCC3)cc(=O)[nH]2)ccc1F"
qualifier_symbol = "="
endpoint_result = 220

[[record]]
compound = "CC1CN(C(=O)Cc2nc(N3CCOCC3)cc(=O)n2C)c2ccccc21 (centres unmarked)"
qualifier_symbol = "="
endpoint_result = 225

[[record]]
compound = "Cn1c(CC(=O)N2CCc3ccc(F)cc32)nc(N2CCOCC2)cc1=O"
qualifier_symbol = "="
endpoint_result = 223

[[record]]
compound = "CC(C)(C)OC(=O)NCCc1cccc(NC(=O)Cc2nc(N3CCOCC3)cc(=O)[nH]2)c1"
qualifier_symbol = "="
endpoint_result = 194

[[record]]
compound = "CC(C)C(C(=O)Nc1ccc(F)cc1)c1nc(N2CCOCC2)cc(=O)[nH]1 (centres unmarked)"
qualifier_symbol = "="
endpoint_result = 266

[[record]]
compound = "O=C(Cc1nc(N2CCOCC2)cc(=O)[nH]1)Nc1cccc2c1NCCC2"
qualifier_symbol = "="
endpoint_result = 232

[[record]]
compound = "Cn1c(CC(=O)N2CCc3c(Br)cccc32)nc(N2CCOCC2)cc1=O"
qualifier_symbol = "="
endpoint_result = 226

[[record]]
compound = "O=C(Cc1nc(N2CCOCC2)cc(=O)[nH]1)Nc1cccc(C2CC2)c1"
qualifier_symbol = "="
endpoint_result = 246


* * *

- Tested on: AKT protein phosphorylated on serine 473 (P-AKT-S473)
- protocol: Study of pAKT expression in PC3 human prostate carcinoma cells measured by the MSD Multi-spot Biomarker Detection technique (Test B)
- Format: cell-based
- test conditions: PC-3, inhibition of AKT phosphorylation (P-AKT-S473), MSD sandwich immunoassay, 1 to 2 h incubation, absolute IC50, mean of 2 experiments
pIC50: −log10 of the molar value.
value type: pIC50

[[record]]
compound = "Cn1c(CC(=O)N2CCc3c(O)cccc32)nc(N2CCOCC2)cc1=O [Example 109]"
tested_target = "AKT protein phosphorylated on serine 473 (P-AKT-S473)"
endpoint_result = 7.37

[[record]]
compound = "O=C(Cc1nc(N2CCOCC2)cc(=O)[nH]1)Nc1ccccc1OCCN1CCCCC1 [Example 107]"
tested_target = "AKT protein phosphorylated on serine 473 (P-AKT-S473)"
endpoint_result = 7.62

[[record]]
compound = "O=C(Nc1ccc(F)cc1)C(F)(F)c1nc(N2CCOCC2)cc(=O)[nH]1 [Example 77]"
tested_target = "AKT protein phosphorylated on serine 473 (P-AKT-S473)"
endpoint_result = 6.16

[[record]]
compound = "CC1Cc2ccccc2N1C(=O)Cc1nc(N2CCOCC2)cc(=O)[nH]1 (stereo not drawn) [Example 96]"
tested_target = "AKT protein phosphorylated on serine 473 (P-AKT-S473)"
endpoint_result = 8.22

[[record]]
compound = "COc1cc(NC(=O)Cc2nc(N3CCOCC3)cc(=O)n2C)ccc1F [Example 83]"
tested_target = "AKT protein phosphorylated on serine 473 (P-AKT-S473)"
endpoint_result = 6.94

[[record]]
compound = "CCn1c(CC(=O)Nc2ccc(F)cc2)nc(N2CCOCC2)cc1=O [Example 70]"
tested_target = "AKT protein phosphorylated on serine 473 (P-AKT-S473)"
endpoint_result = 6.71

[[record]]
compound = "O=C(Cc1nc(N2CCOCC2)cc(=O)[nH]1)Nc1ccccc1OCc1cccnc1 [Example 113]"
tested_target = "AKT protein phosphorylated on serine 473 (P-AKT-S473)"
endpoint_result = 6.18

[[record]]
compound = "Cn1c(CC(=O)Nc2cccc3sccc23)nc(N2CCOCC2)cc1=O [Example 130]"
tested_target = "AKT protein phosphorylated on serine 473 (P-AKT-S473)"
endpoint_result = 7.15

[[record]]
compound = "CN(C)C[C@@H]1CN(C(=O)Cc2nc(N3CCOCC3)cc(=O)[nH]2)c2ccccc21 [Example 137]"
tested_target = "AKT protein phosphorylated on serine 473 (P-AKT-S473)"
endpoint_result = 7.17

[[record]]
compound = "O=C(Cc1nc(N2CCOCC2)cc(=O)[nH]1)N1CCOc2c(Cl)cccc21 [Example 149]"
tested_target = "AKT protein phosphorylated on serine 473 (P-AKT-S473)"
endpoint_result = 7.37

[[record]]
compound = "O=C(Cc1nc(N2CCOCC2)cc(=O)[nH]1)N1CCc2c(F)cc(F)cc21 [Example 92]"
tested_target = "AKT protein phosphorylated on serine 473 (P-AKT-S473)"
endpoint_result = 7.24

[[record]]
compound = "C#Cc1cc(NC(=O)Cc2nc(N3CCOCC3)cc(=O)[nH]2)ccc1F [Example 90]"
tested_target = "AKT protein phosphorylated on serine 473 (P-AKT-S473)"
endpoint_result = 7.85

[[record]]
compound = "O=C(Cc1nc(N2CCOCC2)cc(=O)[nH]1)Nc1cccc2c1OCCN2 [Example 143]"
tested_target = "AKT protein phosphorylated on serine 473 (P-AKT-S473)"
endpoint_result = 6.33

[[record]]
compound = "O=C(Cc1nc(N2CCOCC2)cc(=O)[nH]1)N1CCc2cc(Cl)ccc21 [Example 134]"
tested_target = "AKT protein phosphorylated on serine 473 (P-AKT-S473)"
endpoint_result = 6.91

[[record]]
compound = "CC(C)(C)c1cccc(NC(=O)Cc2nc(N3CCOCC3)cc(=O)[nH]2)c1 [Example 19]"
tested_target = "AKT protein phosphorylated on serine 473 (P-AKT-S473)"
endpoint_result = 7.38

[[record]]
compound = "Cn1c(CC(=O)Nc2ccc(F)c(C(F)F)c2)nc(N2CCOCC2)cc1=O [Example 97]"
tested_target = "AKT protein phosphorylated on serine 473 (P-AKT-S473)"
endpoint_result = 6.59

[[record]]
compound = "O=C(Cc1nc(N2CCOCC2)cc(=O)[nH]1)N1CCc2ccc(F)cc21 [Example 95]"
tested_target = "AKT protein phosphorylated on serine 473 (P-AKT-S473)"
endpoint_result = 7.46

[[record]]
compound = "O=C(Cc1nc(N2CCOCC2)cc(=O)[nH]1)Nc1cccc(C(F)(F)F)c1O [Example 153]"
tested_target = "AKT protein phosphorylated on serine 473 (P-AKT-S473)"
endpoint_result = 7.31

[[record]]
compound = "O=C(Cc1nc(N2CCOCC2)cc(=O)[nH]1)N1CCc2ncccc21 [Example 146]"
tested_target = "AKT protein phosphorylated on serine 473 (P-AKT-S473)"
endpoint_result = 6.74

[[record]]
compound = "Cn1c(CC(=O)N2CCc3ccccc32)nc(N2CCOCC2)cc1=O [Example 79]"
tested_target = "AKT protein phosphorylated on serine 473 (P-AKT-S473)"
endpoint_result = 7.70

[[record]]
compound = "COc1cccc2c1CCN2C(=O)Cc1nc(N2CCOCC2)cc(=O)[nH]1 [Example 141]"
tested_target = "AKT protein phosphorylated on serine 473 (P-AKT-S473)"
endpoint_result = 7.22

[[record]]
compound = "Cn1c(CC(=O)Nc2cccc(C3CC3)c2)nc(N2CCOCC2)cc1=O [Example 82]"
tested_target = "AKT protein phosphorylated on serine 473 (P-AKT-S473)"
endpoint_result = 6.88

[[record]]
compound = "CC1CN(C(=O)Cc2nc(N3CCOCC3)cc(=O)[nH]2)c2ccccc21 (stereo not drawn) [Example 101]"
tested_target = "AKT protein phosphorylated on serine 473 (P-AKT-S473)"
endpoint_result = 7.89

[[record]]
compound = "O=C(Cc1nc(N2CCOCC2)cc(=O)[nH]1)Nc1cccc2[nH]cnc12 [Example 139]"
tested_target = "AKT protein phosphorylated on serine 473 (P-AKT-S473)"
endpoint_result = 5.52

[[record]]
compound = "C[C@@H]1CN(C(=O)Cc2nc(N3CCOCC3)cc(=O)[nH]2)c2ccccc21 [Example 125]"
tested_target = "AKT protein phosphorylated on serine 473 (P-AKT-S473)"
endpoint_result = 7.80

[[record]]
compound = "Cn1c(CC(=O)Nc2ccc(F)c(Br)c2)nc(N2CCOCC2)cc1=O [Example 80]"
tested_target = "AKT protein phosphorylated on serine 473 (P-AKT-S473)"
endpoint_result = 7.03

[[record]]
compound = "O=C(Cc1nc(N2CCOCC2)cc(=O)[nH]1)Nc1cccc2occc12 [Example 84]"
tested_target = "AKT protein phosphorylated on serine 473 (P-AKT-S473)"
endpoint_result = 7.77

[[record]]
compound = "CC1(C)CN(C(=O)Cc2nc(N3CCOCC3)cc(=O)[nH]2)c2ccccc21 [Example 154]"
tested_target = "AKT protein phosphorylated on serine 473 (P-AKT-S473)"
endpoint_result = 7.55

[[record]]
compound = "COC(=O)c1cccc(NC(=O)Cc2nc(N3CCOCC3)cc(=O)[nH]2)c1O [Example 140]"
tested_target = "AKT protein phosphorylated on serine 473 (P-AKT-S473)"
endpoint_result = 6.52

[[record]]
compound = "NC(=O)C1Cc2ccccc2N1C(=O)Cc1nc(N2CCOCC2)cc(=O)[nH]1 (stereo not drawn) [Example 122]"
tested_target = "AKT protein phosphorylated on serine 473 (P-AKT-S473)"
endpoint_result = 6.30

